# reported MIC; entries follow
- Tested on: Torulopsis glabrata
Answer format: numeric, µg/mL implied, no suffix.

// solved cases for MIC follow
>>> print(df.to_string())
                                   molecule  measured_value
0  CC(C)(C)C(O)(CSc1ccc(Cl)cc1)Cn1cncn1 (stereo not shown) [Beispiel 3]               2
1  CC(CF)(CF)C(O)(CCc1ccc(Cl)cc1)Cn1cncn1 (stereo not shown) [Beispiel 28]               2
2  C=CC(C)(C)C(O)(COc1ccc(Cl)cc1)Cn1cncn1 (stereo not shown) [Beispiel 22]              16
3  CC(C)(CF)C(O)(COc1ccc(F)cc1)Cn1cncn1 (stereo not shown) [Beispiel 1]              16
4  CC(C)(CF)C(O)(CCc1ccc(Cl)cc1Cl)Cn1cncn1 (stereo not shown) [Beispiel 26]               8

Q: Record COCC(C)(C)C(O)(COc1ccc(F)cc1)Cn1cncn1 (stereo not shown) [Beispiel 20] : what is its MIC with Torulopsis glabrata?
Ans: 2

Q: Record CC(CF)(CF)C(O)(COc1ccc(Cl)cc1)Cn1cncn1 (stereo not shown) [Beispiel 13] : what is its MIC with Torulopsis glabrata?
Ans: 8

Q: Record CC(C)(COc1ccc(Cl)cc1)C(O)(COc1ccc(Cl)cc1)Cn1cncn1 (stereo not shown) [Beispiel 19] : what is its MIC with Torulopsis glabrata?
Ans: 2

Q: Record CC(CF)(CF)C(O)(CCc1ccc(Cl)cc1Cl)Cn1ccnc1 (stereo not shown) [Beispiel 36] : what is its MIC with Torulopsis glabrata?
Ans: 4

Q: Record Cc1ccc(OCC(O)(Cn2cncn2)C(C)(C)CF)cc1 (stereo not shown) [Beispiel 6] : what is its MIC with Torulopsis glabrata?
Ans: 4

Q: Record CC(CF)(CF)C(O)(COc1ccc(Cl)cc1Cl)Cn1ccnc1 (stereo not shown) [Beispiel 32] : what is its MIC with Torulopsis glabrata?
Ans: 8
